system: CCRIS mutagenicity, Ames/micronucleus/aberration tests; assay: CCRIS mutagenicity studies; conditions: Test System: AMES SALMONELLA TYPHIMURIUM; Strain/Indicator: TA1535; Metabolic Activation: RAT, LIVER, S-9, AROCLOR 1254 (10%); Method: PREINCUBATION
The source made the active and inactive calls. The rule behind the calls is not given here.
ENDPOINT: mutagenic call

Solved entries (count: 5):
INSERT INTO measurements (compound, value_observed) VALUES
  ('O=[N+]([O-])CCO', 'inactive; negative'),
  ('O=C1OC(=O)c2c(Cl)c(Cl)c(Cl)c(Cl)c21', 'inactive; negative'),
  ('Cc1ccc(N)cc1', 'inactive; negative'),
  ('Cc1cc(-c2ccc(N/N=C3\C(=O)c4c(O)cc(S(=O)(=O)O)cc4C=C3S(=O)(=O)O)c(C)c2)ccc1N/N=C1\C(=O)c2c(O)cc(S(=O)(=O)O)cc2C=C1S(=O)(=O)O', 'inactive; negative'),
  ('O[C@H]([C@H](O)[C@@H](O)CBr)[C@H](O)CBr', 'active; positive');

For c1cc(OCC2CO2)cc(OCC2CO2)c1 (stereo unspecified) , what is its reported mutagenic call?
active; positive

----------
System: CCRIS mutagenicity, Ames/micronucleus/aberration tests
Experiment: CCRIS mutagenicity studies
Conditions: Test System: Mouse lymphoma; Strain/Indicator: L5178Y (tk+/tk-); Metabolic Activation: None; Method: Suspension/plate
Text: The CCRIS database contains chemical records with carcinogenicity, mutagenicity, tumor promotion, and tumor inhibition test results. It was developed by the National Cancer Institute (NCI). Data are derived from studies cited in primary journals, current awareness tools, NCI reports, and other sources. Test results have been reviewed by experts in carcinogenesis and mutagenesis. CCRIS provides historical information from the years 1985 - 2011. It is no longer updated. […]
Activity calls are given as the source filed them. The rule behind the calls is not given here.
# output must be one of active, inactive

Consider the following illustrative entries.
INSERT INTO measurements (smiles_input, classification) VALUES
  ('O=C(/C=C/c1ccccc1)OC/C=C/c1ccccc1', 'active'),
  ('O=S(Cl)Cl', 'active'),
  ('Nc1ccc(S(N)(=O)=O)cc1', 'inactive'),
  ('[Cl][Cr]([Cl])[Cl]', 'inactive'),
  ('CCN(Cc1cccc(S(=O)(=O)O)c1)c1ccc(C(=C2C=CC(=[N+](CC)Cc3cccc(S(=O)(=O)O)c3)C=C2)c2ccc(O)cc2S(=O)(=O)[O-])cc1', 'inactive'),
  ('O=CC(=O)c1ccccc1', 'active');

Consider the additional compound presented here.
What classification did `CC(C)[C@]12CC(=O)[C@H](C)[C@H]1C2` end up with in this test?
inactive

----------
system: CCRIS mutagenicity, Ames/micronucleus/aberration tests; test: CCRIS mutagenicity studies; details: Test System: AMES SALMONELLA TYPHIMURIUM; Strain/Indicator: TA97; Metabolic Activation: NONE; Method: STANDARD PLATE
Calls of active or inactive are those of the source. How the calls were made is not given here.
Write down the outcome that applies. Available outcomes: t for active, f for inactive

Answered examples (2):
INSERT INTO measurements (compound, classification) VALUES
  ('ClC=C(Cl)Cl', 't'),
  ('CN(C)N=Nc1ccc(Cl)cc1', 'f');

# lookup: test call for `CCC(=O)N(O)c1ccc(Cl)c(Cl)c1`
f

Short answer needed: outcome of this test for `Clc1cccc(Cl)n1` ?
f

Record lookup: outcome of this test for `CCCCCCCCCc1ccccc1Oc1ccccc1CCCCCCCCC` ?
f

Record request — test call for NC1CCC(N)CC1 (configuration not stated)
f

For `CC(Cl)(Cl)Cl` , which call appears in the assay record?
t

----------
test system: CCRIS mutagenicity, Ames/micronucleus/aberration tests; assay: CCRIS mutagenicity studies; details: Test System: AMES SALMONELLA TYPHIMURIUM; Strain/Indicator: TA100; Metabolic Activation: HAMSTER, LIVER, S-9, AROCLOR 1254 (10%); Method: PREINCUBATION
Calls of active or inactive are those of the source. No rule for the calls is given here.
Outcomes you can answer with include only these: active, inactive

INSERT INTO results (compound, classification) VALUES
  ('CCCCCCCCCCCCS', 'inactive'),
  ('CC(C)CCC(C)Nc1ccc(NC(C)CCC(C)C)cc1 (stereo unspecified)', 'inactive');

Called result for `Cc1cc(-c2ccc(N/N=C3\C(=O)c4c(O)cc(S(=O)(=O)O)cc4C=C3S(=O)(=O)O)c(C)c2)ccc1N/N=C1\C(=O)c2c(O)cc(S(=O)(=O)O)cc2C=C1S(=O)(=O)O`
inactive

Recorded test call requested for `N[C@H](Cc1ccccc1)C(=O)O`
inactive

Please let me know the test result on file for `O=[N+]([O-])c1ccc(NCCO)c(OCCO)c1` .
active

----------
system: CCRIS mutagenicity, Ames/micronucleus/aberration tests; test: CCRIS mutagenicity studies; conditions: Test System: AMES SALMONELLA TYPHIMURIUM; Strain/Indicator: TA102; Metabolic Activation: RAT, LIVER, S-9, AROCLOR 1254; Method: STANDARD PLATE
Calls of active or inactive are those of the source. How the calls were made is not given here.
Your answer must be one of the following: active, inactive

Worked examples follow.
INSERT INTO assay_data (compound, tested_system, classification) VALUES
  ('O=C(O)c1cc(O)c2c(c1)C(=O)c1cccc(O)c1C2=O', 'CCRIS mutagenicity, Ames/micronucleus/aberration tests', 'inactive'),
  ('Cc1cc(Cl)ccc1OCC(=O)O', 'CCRIS mutagenicity, Ames/micronucleus/aberration tests', 'inactive'),
  ('CCC(CCC(C)=O)COC(=O)CCCCC(=O)O (configuration not stated)', 'CCRIS mutagenicity, Ames/micronucleus/aberration tests', 'inactive'),
  ('Fc1cccc(F)n1', 'CCRIS mutagenicity, Ames/micronucleus/aberration tests', 'inactive'),
  ('Cc1cc(=O)n(-c2ccccc2)n1C', 'CCRIS mutagenicity, Ames/micronucleus/aberration tests', 'inactive'),
  ('CC(=O)N1CCC[C@H]1C(=O)N(CC(=O)O)N=O', 'CCRIS mutagenicity, Ames/micronucleus/aberration tests', 'active');

# next compound below
// return assay outcome for CC(O)CN(C)c1ccc(NN)nn1 (configuration not stated)
inactive

----------
tested on: CCRIS mutagenicity, Ames/micronucleus/aberration tests; experiment: CCRIS mutagenicity studies; details: Test System: AMES SALMONELLA TYPHIMURIUM; Strain/Indicator: TA102; Metabolic Activation: NONE; Method: STANDARD PLATE
Calls of active or inactive are those of the source. No rule for the calls is given here.
The reply should be one of these categories: active, inactive

Illustrative cases are given below, each with its answer.
INSERT INTO results (compound, classification) VALUES
  ('CCCCCCCCCc1ccccc1Oc1ccccc1CCCCCCCCC', 'inactive'),
  ('Cc1cc(Cl)ccc1OCC(=O)O', 'inactive'),
  ('[Cl][Hg][Cl]', 'inactive'),
  ('COC(=O)Nc1nc2ccc(Sc3ccccc3)cc2[nH]1', 'inactive'),
  ('CCOC(=O)CC(SP(=S)(OC)OC)C(=O)OCC (configuration not stated)', 'inactive');

Outcome? CCN(CC)C(=O)Nc1ccc(OCC(O)CNC(C)(C)C)c(C(C)=O)c1 (configuration not stated)
inactive

Given CC1(C)CC(C(=O)O)C(C)(C)N1[O] (configuration not stated) , state the outcome it received in this test.
inactive

How did this test come out for CC(=O)c1cc2c(cc1C)C(C)(C)C(C)C2(C)C (configuration not stated) ?
inactive

----------
tested on: CCRIS mutagenicity, Ames/micronucleus/aberration tests; test: CCRIS mutagenicity studies; conditions: Test System: Ames Salmonella typhimurium; Strain/Indicator: TA102; Metabolic Activation: None; Method: Preincubation
Active and inactive are the calls of the source. How the calls were made is not given here.
ENDPOINT: mutagenic call

INSERT INTO assay_data (smiles_input, tested_system, value_observed) VALUES
  ('C=CC1=C(C)C(=O)N/C1=C\c1[nH]c(Cc2[nH]c(/C=C3\NC(=O)C(C)=C3C=C)c(C)c2CCC(=O)NCCS(=O)(=O)O)c(CCC(=O)NCCS(=O)(=O)O)c1C', 'CCRIS mutagenicity, Ames/micronucleus/aberration tests', 'inactive; negative'),
  ('Oc1cc(O)cc(/C=C/c2ccc(O)c(O)c2)c1', 'CCRIS mutagenicity, Ames/micronucleus/aberration tests', 'inactive; negative'),
  ('Oc1cc(O)c2c(c1)O[C@H](c1ccc(O)c(O)c1)[C@H](O)C2', 'CCRIS mutagenicity, Ames/micronucleus/aberration tests', 'inactive; negative');

----------
tested on: CCRIS mutagenicity, Ames/micronucleus/aberration tests; experiment: CCRIS mutagenicity studies; conditions: Test System: AMES SALMONELLA TYPHIMURIUM; Strain/Indicator: TA100; Metabolic Activation: HAMSTER, LIVER, S-9, AROCLOR 1254 (10%); Method: PREINCUBATION
Active and inactive are the calls of the source. How the calls were made is not given here.
Thanks in advance; please answer with one of these: active, inactive

INSERT INTO measurements (smiles_input, classification) VALUES
  ('Cc1ccc(N)cc1', 'inactive'),
  ('Clc1nc2ccccc2nc1Cl', 'inactive'),
  ('O=[N+]([O-])CCO', 'inactive'),
  ('CCCCCCCCOC(=O)c1ccccc1C(=O)OCCCCCCCC', 'inactive'),
  ('O.[Al+3].[Al+3].[Na+].[Na+].[O-2].[O-2].[O-2].[O-2].[O-2].[O-2].[Si+4]', 'inactive'),
  ('COc1ccc(C(=O)/C(Br)=C\C(=O)O)cc1', 'active');

What classification did `CCN(CC)c1cccc(O)c1` end up with in this test?
active
